Origin of the recorded values: ChEMBL document CHEMBL2311292

assay: Kinetic aqueous solubility of the compound after 22 mins at pH 7.4 by nephelometric analysis; type: physicochemical; settings: read-out: Kinetic_solubility
# Lookup of reported solubility kinetic at 22 min keyed by entry
measuredQuantity: solubility kinetic at 22 min

1) COCN(C#N)c1nc(N(C)C)nc(N(C)C)n1 :: ≤ 30 µM
2) CC(C)Nc1nc(N(C)C)nc(N(C#N)CCOc2ccccc2)n1 :: ≤ 30 µM
3) O=[N+]([O-])c1ccc(N2CCN(C/C=C/S(=O)(=O)c3ccccc3)CC2)cc1 :: ≤ 30 µM

---

target: Cathepsin K (Homo sapiens, UniProt P43235); experiment: Inhibition of human cathepsin K […]
measuredQuantity: Ki (nM)

1) CC(C)C[C@H](NC(=O)C1OC1C(=O)O)C(=O)NCCCCNC(=N)N (stereo partly specified) :: 1.4

---

molecular target: UniProtKB P43235; experiment: Inhibition of human cathepsin K
pIC50: −log10 of the molar value.
measuredQuantity: pIC50

1) CCCCC(NC(=O)OCC1(c2ccc(F)cc2)CCC1)C(=O)C(=O)Nc1ccn[nH]1 (stereo unspecified) :: 9.08

---

The following compounds are listed with their measured IC50 values.
Target: Cathepsin K (Homo sapiens)
Sequence (P43235 whole entry): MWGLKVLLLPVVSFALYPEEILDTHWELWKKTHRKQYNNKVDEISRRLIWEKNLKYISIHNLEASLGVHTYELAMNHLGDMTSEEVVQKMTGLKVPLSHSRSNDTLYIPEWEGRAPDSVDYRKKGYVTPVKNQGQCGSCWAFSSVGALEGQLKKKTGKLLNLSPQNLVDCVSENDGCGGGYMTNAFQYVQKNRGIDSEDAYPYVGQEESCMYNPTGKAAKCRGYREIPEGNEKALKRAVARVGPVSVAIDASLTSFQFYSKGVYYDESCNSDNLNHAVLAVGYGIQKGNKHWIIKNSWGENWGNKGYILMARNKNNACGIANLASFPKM
Test: Inhibition of human recombinant His-tagged cathepsin K using Cbz-Phe-Arg-AMC as substrate incubated for 30 mins prior to substrate addition by FRET assay
measuredQuantity: IC50 (µM)

1) CCOc1ccc(NC23SCC(=O)C2CCc2ccccc23)cc1 (stereo not drawn) :: 13.3
2) CCCCCCC1=Cc2c/c(=C(\C)NNC(N)=S)c(=O)oc2=CC1=O :: 3.4
3) C/C(=N/NC(N)=S)c1ccc(Sc2ccccc2)cc1 :: 10.5
4) NC(=S)N/N=C(/CC(c1ccccc1)c1c(O)c2ccccc2oc1=O)c1ccc(-c2ccc(Br)cc2)cc1 (stereo not drawn) :: 4.6
5) Cc1ccc(S(=O)(=O)/C=C/CS(=O)(=O)c2ccc(C)cc2)cc1 :: 19.3
6) CC/C(=N\NC(N)=S)c1ccc(OCc2ccc(C(=O)OC)cc2)c(OC)c1 :: 5.3
7) COC(=O)c1ccc(COc2ccc(/C=C/C(C)=N/NC(N)=S)cc2)cc1 :: 2.7
8) C/C(COc1ccc(-c2csnn2)cc1)=N\NC(N)=S :: 1.6
9) CCCCS(=O)(=O)/C=C/C1C2C=CC(C2)C1S(=O)(=O)CCCC (stereo not drawn) :: 21.4
10) CC1(C)CC(=O)NC1(C)C#N (stereo not drawn) :: 1.3
11) C/C(=N/NC(N)=S)c1csc(-c2ccccc2)n1 :: 0.1
12) O=[N+]([O-])c1ccc(N2CCN(C/C=C/S(=O)(=O)c3ccccc3)CC2)cc1 :: 18.1
13) C/C(=N\NC(N)=S)C1CCCCCCCCCCC1 :: 7.6
14) CC(C)Nc1nc(C#N)nc(Nc2ccccc2)n1 :: 0.2
15) O=C1C2CCN(CC2)C1Cc1ccc(OCCOc2ccccc2)cc1 (stereo not drawn) :: 3.4
16) O=C1C2CCN(CC2)C1CSc1ccc(Cl)cc1 (stereo not drawn) :: 21.3
17) CCOC(=O)C(C(=O)OCC)N(C#N)c1nc(OC)nc(N(C)C)n1 :: 4.3
18) N#Cc1nc(N2CCCC2)nc(N(c2ccccc2)c2ccccc2)n1 :: 0.4
19) C/C(=N\NC(N)=S)[C@]1(C)C[C@]2(CC(C)(C)OC2=O)C(=O)O1 :: 5.8
20) NC(=S)N/N=C(/CC(C(=O)O)c1c[nH]c2ccccc12)c1ccccc1 (stereo not drawn) :: 9.6
